Experiment: Biodistribution studies
Type: in vivo
Settings: female, BALB/c nude, mouse, stomach, iv, total radioactivity; 4 h postinjection, ~7.4 MBq i.v., n = 5, mean ± SD; read-out: Stomach uptake
Where a SMILES comes first, the peptide text is derived from it. Bridges are numbered along the chain shown (N, C = ends).
value.type: tissue uptake at 4 h (%ID/g)
Reply numerically in %ID/g, unit not repeated.

Return the recorded tissue uptake at 4 h value; entry: N=C(N)NCCC[C@@H]1NC(=O)CNC(=O)[C@H](CC(N)=O)NC(=O)[C@@H](NC(=O)CNC(=O)CNC(=O)[C@@H](N)Cc2ccc(O)cc2)CSSC[C@@H](C(=O)O)NC1=O [^99mTc-NGR, metal not drawn] (H-YGGCNGRC-OH; disulfide 4-8)
2.2

====

Assay: Biodistribution studies
Format: in vivo
Details: female, BALB/c nude, mouse, iv, total radioactivity; HepG2 tumor, Blocking (1 h), coinjection of unlabelled NGR 20 mg/kg, n = 5, mean ± SD; read-out: Tumor uptake
Where a SMILES comes first, the peptide text is derived from it. Bridges are numbered along the chain shown (N, C = ends).
value.type: tissue uptake at 1 h (%ID/g)
Reply numerically in %ID/g, unit not repeated.

Return the recorded tissue uptake at 1 h value; entry: N=C(N)NCCC[C@@H]1NC(=O)CNC(=O)[C@H](CC(N)=O)NC(=O)[C@@H](NC(=O)CNC(=O)CNC(=O)[C@@H](N)Cc2ccc(O)cc2)CSSC[C@@H](C(=O)O)NC1=O [^99mTc-NGR, metal not drawn] (H-YGGCNGRC-OH; disulfide 4-8)
1.65

====

Assay: Biodistribution studies
Type: in vivo
Conditions: female, BALB/c nude, mouse, lung, iv, total radioactivity; Blocking (1 h), coinjection of unlabelled NGR 20 mg/kg, n = 5, mean ± SD; read-out: Lung uptake
Where a SMILES comes first, the peptide text is derived from it. Bridges are numbered along the chain shown (N, C = ends).
value.type: tissue uptake at 1 h (%ID/g)
Reply numerically in %ID/g, unit not repeated.

Return the recorded tissue uptake at 1 h value; entry: N=C(N)NCCC[C@@H]1NC(=O)CNC(=O)[C@H](CC(N)=O)NC(=O)[C@@H](NC(=O)CNC(=O)CNC(=O)[C@@H](N)Cc2ccc(O)cc2)CSSC[C@@H](C(=O)O)NC1=O [^99mTc-NGR, metal not drawn] (H-YGGCNGRC-OH; disulfide 4-8)
2.04

====

Test: Biodistribution studies
Type: in vivo
Conditions: female, BALB/c nude, mouse, spleen, iv, total radioactivity; 1 h postinjection, ~7.4 MBq i.v., n = 5, mean ± SD; read-out: Spleen uptake
Where a SMILES comes first, the peptide text is derived from it. Bridges are numbered along the chain shown (N, C = ends).
value.type: tissue uptake at 1 h (%ID/g)
Reply numerically in %ID/g, unit not repeated.

Return the recorded tissue uptake at 1 h value; entry: N=C(N)NCCC[C@@H]1NC(=O)CNC(=O)[C@H](CC(N)=O)NC(=O)[C@@H](NC(=O)CNC(=O)CNC(=O)[C@@H](N)Cc2ccc(O)cc2)CSSC[C@@H](C(=O)O)NC1=O [^99mTc-NGR, metal not drawn] (H-YGGCNGRC-OH; disulfide 4-8)
2.37

====

Test: Biodistribution studies
Assay type: in vivo
Conditions: female, BALB/c nude, mouse, tumor/muscle, iv, 7.4 MBq, total radioactivity; 8 h (highest value); read-out: tumor/muscle (T/NT) value
Procedure: HepG2 cells were grown in high glucose DMEM culture medium. […] Nude mice bearing human HepG2 hepatoma were randomly divided into 5 groups and injected with ~7.4 MBq of ^99mTc-NGR with or without excess unlabelled NGR peptide (20 mg/kg). […] The radioactivity in the HepG2 tumor, major organs, and muscle were collected and weighed wet with tubes (%ID/g). Mean uptake (%ID/g) for a group of animals was calculated with standard deviations. Values were expressed as mean ± SD (n = 5/group).
Where a SMILES comes first, the peptide text is derived from it. Bridges are numbered along the chain shown (N, C = ends).
value.type: tissue to tissue ratio at 8 h

Return the recorded tissue to tissue ratio at 8 h value; entry: N=C(N)NCCC[C@@H]1NC(=O)CNC(=O)[C@H](CC(N)=O)NC(=O)[C@@H](NC(=O)CNC(=O)CNC(=O)[C@@H](N)Cc2ccc(O)cc2)CSSC[C@@H](C(=O)O)NC1=O [^99mTc-NGR, metal not drawn] (H-YGGCNGRC-OH; disulfide 4-8)
7.58

====

Test: Biodistribution studies
Format: in vivo
Conditions: female, BALB/c nude, mouse, stomach, iv, total radioactivity; 8 h postinjection, ~7.4 MBq i.v., n = 5, mean ± SD; read-out: Stomach uptake
Where a SMILES comes first, the peptide text is derived from it. Bridges are numbered along the chain shown (N, C = ends).
value.type: tissue uptake at 8 h

Return the recorded tissue uptake at 8 h value; entry: N=C(N)NCCC[C@@H]1NC(=O)CNC(=O)[C@H](CC(N)=O)NC(=O)[C@@H](NC(=O)CNC(=O)CNC(=O)[C@@H](N)Cc2ccc(O)cc2)CSSC[C@@H](C(=O)O)NC1=O [^99mTc-NGR, metal not drawn] (H-YGGCNGRC-OH; disulfide 4-8)
1.61 %ID/g

====

Assay: Biodistribution studies
Type: in vivo
Settings: female, BALB/c nude, mouse, liver, iv, total radioactivity; 8 h postinjection, ~7.4 MBq i.v., n = 5, mean ± SD; read-out: Liver uptake
Where a SMILES comes first, the peptide text is derived from it. Bridges are numbered along the chain shown (N, C = ends).
value.type: tissue uptake at 8 h (%ID/g)
Reply numerically in %ID/g, unit not repeated.

Return the recorded tissue uptake at 8 h value; entry: N=C(N)NCCC[C@@H]1NC(=O)CNC(=O)[C@H](CC(N)=O)NC(=O)[C@@H](NC(=O)CNC(=O)CNC(=O)[C@@H](N)Cc2ccc(O)cc2)CSSC[C@@H](C(=O)O)NC1=O [^99mTc-NGR, metal not drawn] (H-YGGCNGRC-OH; disulfide 4-8)
3.44

====

Assay: Biodistribution studies
Assay type: in vivo
Settings: female, BALB/c nude, mouse, stomach, iv, total radioactivity; 1 h postinjection, ~7.4 MBq i.v., n = 5, mean ± SD; read-out: Stomach uptake
Where a SMILES comes first, the peptide text is derived from it. Bridges are numbered along the chain shown (N, C = ends).
value.type: tissue uptake at 1 h
Kindly format the answer as number then unit.

Return the recorded tissue uptake at 1 h value; entry: N=C(N)NCCC[C@@H]1NC(=O)CNC(=O)[C@H](CC(N)=O)NC(=O)[C@@H](NC(=O)CNC(=O)CNC(=O)[C@@H](N)Cc2ccc(O)cc2)CSSC[C@@H](C(=O)O)NC1=O [^99mTc-NGR, metal not drawn] (H-YGGCNGRC-OH; disulfide 4-8)
3.07 %ID/g

====

Assay: Biodistribution studies
Type: in vivo
Conditions: female, BALB/c nude, mouse, intestine, iv, total radioactivity; Blocking (1 h), coinjection of unlabelled NGR 20 mg/kg, n = 5, mean ± SD; read-out: Intestine uptake
Where a SMILES comes first, the peptide text is derived from it. Bridges are numbered along the chain shown (N, C = ends).
value.type: tissue uptake at 1 h

Return the recorded tissue uptake at 1 h value; entry: N=C(N)NCCC[C@@H]1NC(=O)CNC(=O)[C@H](CC(N)=O)NC(=O)[C@@H](NC(=O)CNC(=O)CNC(=O)[C@@H](N)Cc2ccc(O)cc2)CSSC[C@@H](C(=O)O)NC1=O [^99mTc-NGR, metal not drawn] (H-YGGCNGRC-OH; disulfide 4-8)
2.4 %ID/g

====

Assay: Biodistribution studies
Assay type: in vivo
Conditions: female, BALB/c nude, mouse, heart, iv, total radioactivity; 4 h postinjection, ~7.4 MBq i.v., n = 5, mean ± SD; read-out: Heart uptake
Where a SMILES comes first, the peptide text is derived from it. Bridges are numbered along the chain shown (N, C = ends).
value.type: tissue uptake at 4 h

Return the recorded tissue uptake at 4 h value; entry: N=C(N)NCCC[C@@H]1NC(=O)CNC(=O)[C@H](CC(N)=O)NC(=O)[C@@H](NC(=O)CNC(=O)CNC(=O)[C@@H](N)Cc2ccc(O)cc2)CSSC[C@@H](C(=O)O)NC1=O [^99mTc-NGR, metal not drawn] (H-YGGCNGRC-OH; disulfide 4-8)
2.26 %ID/g

====

Experiment: Biodistribution studies
Type: in vivo
Details: female, BALB/c nude, mouse, spleen, iv, total radioactivity; 4 h postinjection, ~7.4 MBq i.v., n = 5, mean ± SD; read-out: Spleen uptake
Where a SMILES comes first, the peptide text is derived from it. Bridges are numbered along the chain shown (N, C = ends).
value.type: tissue uptake at 4 h (%ID/g)
Reply numerically in %ID/g, unit not repeated.

Return the recorded tissue uptake at 4 h value; entry: N=C(N)NCCC[C@@H]1NC(=O)CNC(=O)[C@H](CC(N)=O)NC(=O)[C@@H](NC(=O)CNC(=O)CNC(=O)[C@@H](N)Cc2ccc(O)cc2)CSSC[C@@H](C(=O)O)NC1=O [^99mTc-NGR, metal not drawn] (H-YGGCNGRC-OH; disulfide 4-8)
2.09

Where do the numbers come from? From paper PMC4052532.
